- Tested target: T1, mouse serum albumin (mouse, UniProt P07724 25-608)
- T1 construct: also called MSA
- Experiment: SPR (Biacore), cross-reactivity
Parameter: binding result

Reported binding result for DOM7r-36 (VHH, human VH dAb (AlbudAb)) VHH: EVQLLESGGGLVQPGGSLRLSCAASGFTFNHYTMGWVRQAPGKGLEWVSLIHPSGTVTYYADSVKGRFTISRDNSKNTLYLQMNSLRAEDTAVYYCAKWSSRAFDYWGQGTLVTVSS was binds

Reported binding result for DOM7h-112 (VHH, human VH immunoglobulin single variable domain (dAb, AlbudAb), not camelid) VHH: EVQLLESGGGLVQPGGSLRLSCAASGFTFGGYVMGWVRQAPGKGLEWVSAINRFGSSTYYADSVKGRFTISRDNSKNTLYLQMNSLRAEDTAVYYCAKGSLRHFDYWGQGTLVTVSS was binds

Reported binding result for DOM7h-98 (VHH, human VH dAb (AlbudAb)) VHH: EVQLLESGGGLVQPGGSLRLSCAASGFTFGNYAMAWVRQAPGKGLEWVSSIDMVGIKTYYADSVKGRFTISRDNSKNTLYLQMNSLRAEDTAVYYCAKGFRIFDYWGQGTLVTVSS was binds
